# Tested on: Calu-3
# Protocol Details: cell viability relative to DMSO; higher = less toxic
# Run Parameters: 72 h; 100 nM
Measured cell viability values are reported for all entries that follow.
Response body: numeric value in %, unit text excluded.

> print(dat)
                                   compound  unit.name  number
1  COc1cc(Nc2ncc(F)c(Nc3ccc4c(n3)NC(=O)C(C)(C)O4)n2)cc(OC)c1OC          %    97.6
2  CCC/C=C1\OC(=O)C2=C1CCC=C2 [ligustilide]          %     103

// below: cell viability requested for another compound
Recorded cell viability for CNC(=O)c1c(C)oc2cc(Oc3ncnc4cc(OC)c(OC)cc34)ccc12 , please?
98.7

Just for reference, the supplement of paper PMC13380429 is where these values come from.
